Measured IC50 (JAK3 (a.a. 781-1124) (Homo sapiens (Human)))

Consider the worked cases shown below.
{"MOLECULE": "CN(C(=O)CC#N)C1CCN(c2nccc(-c3cnc4[nH]ccc4c3N[C@@H]3CCCN(C(=O)CC#N)C3)n2)C1 (stereo partly shown) [Example 50]", "ATTRIBUTE_MEASURED": "IC50", "REPORTED_MEASUREMENT": "≤ 10 nM"}
{"MOLECULE": "CNC(=O)c1coc(-c2cnc3[nH]ccc3c2N[C@@H]2C[C@H](C)CN(C(=O)CC#N)C2)n1 [Example 31]", "ATTRIBUTE_MEASURED": "IC50", "REPORTED_MEASUREMENT": "≤ 10 nM"}
{"MOLECULE": "N#CCC(=O)N1CCC[C@@H](Nc2c(-c3ccsn3)cnc3[nH]ccc23)C1 [Example 41]", "ATTRIBUTE_MEASURED": "IC50", "REPORTED_MEASUREMENT": "≤ 10 nM"}

Prompt line: Under JAK3 (a.a. 781-1124) (Homo sapiens (Human)): IC50 value of CN(C)S(=O)(=O)Nc1ccnc(-c2cnc3[nH]ccc3c2N[C@@H]2CCCN(C(=O)CC#N)C2)c1 [Example 54] ?
Response line: 100 to 1000 nM

###

Measured pIC50 (JAK1 (Homo sapiens (Human), UniProt P23458))
pIC50: −log10 of the molar value.

Consider the worked cases shown below.
{"COMPOUND": "N#CCC(=O)N1CCC[C@@H](Nc2c(-c3nnco3)cnc3[nH]ccc23)C1", "ATTRIBUTE_MEASURED": "pIC50", "REPORTED_MEASUREMENT": "7.00 to 8.00"}
{"COMPOUND": "CN(C)S(=O)(=O)Nc1ccnc(-c2cnc3[nH]ccc3c2N[C@@H]2CCCN(C(=O)CC#N)C2)c1", "ATTRIBUTE_MEASURED": "pIC50", "REPORTED_MEASUREMENT": "7.00 to 8.00"}
{"COMPOUND": "CNC(=O)c1coc(-c2cnc3[nH]ccc3c2N[C@@H]2CCCN(C(=O)CC#N)C2)n1", "ATTRIBUTE_MEASURED": "pIC50", "REPORTED_MEASUREMENT": "≥ 8.00"}
{"COMPOUND": "Cc1ccnc(-c2cnc3[nH]ccc3c2N[C@@H]2CCCN(C(=O)CC#N)C2)n1", "ATTRIBUTE_MEASURED": "pIC50", "REPORTED_MEASUREMENT": "≥ 8.00"}
{"COMPOUND": "O[C@H]1CC[C@@H](Nc2c(-c3ncco3)cnc3[nH]ccc23)C1", "ATTRIBUTE_MEASURED": "pIC50", "REPORTED_MEASUREMENT": "7.00 to 8.00"}

Prompt line: Under JAK1 (Homo sapiens (Human), UniProt P23458): pIC50 value of C[C@H]1C[C@@H](Nc2c(-c3ccn(C(F)F)n3)cnc3[nH]ccc23)CN(C(=O)CC#N)C1 ?
Response line: ≥ 8.00

###

# Test system: IFNγ stimulated STAT1 phosphorylation on Tyr701 (JAK1/2)
# MEASUREMENT_PROTOCOL: JAK1/2 cellular target modulation: IFNγ stimulated phospho-STAT1 in PBMC
# Format: cell-based
# MEASUREMENT_SETUP: human PBMC, IFNγ 10 ng/ml; read-out: Infγ-STAT1 IC50
Below, each of the molecules is paired with its reported IC50 value.

Consider the worked cases shown below.
{"MOLECULE": "Cc1cccc(-c2cnc3[nH]ccc3c2N[C@@H]2CCCN(C(=O)CC#N)C2)n1 [Example 20]", "ATTRIBUTE_MEASURED": "IC50", "REPORTED_MEASUREMENT": "100 to 1000 nM"}
{"MOLECULE": "N#CCC(=O)N1CCC[C@@H](Nc2c(-c3cccc(CO)n3)cnc3[nH]ccc23)C1 [Example 63]", "ATTRIBUTE_MEASURED": "IC50", "REPORTED_MEASUREMENT": "100 to 1000 nM"}
{"MOLECULE": "N#CCC(=O)N1CCC[C@@H](Nc2c(-c3ncon3)cnc3[nH]ccc23)C1 [Example 38]", "ATTRIBUTE_MEASURED": "IC50", "REPORTED_MEASUREMENT": "> 1000 nM"}
{"MOLECULE": "CC(=O)c1cnc(-c2cnc3[nH]ccc3c2N[C@@H]2CCCN(C(=O)CC#N)C2)o1 [Example 66]", "ATTRIBUTE_MEASURED": "IC50", "REPORTED_MEASUREMENT": "100 to 1000 nM"}
{"MOLECULE": "N#CCC(=O)N1CCC[C@@H](Nc2c(-c3ccn[nH]3)cnc3[nH]ccc23)C1 [Example 18]", "ATTRIBUTE_MEASURED": "IC50", "REPORTED_MEASUREMENT": "100 to 1000 nM"}
{"MOLECULE": "N#CCC(=O)N1CCC[C@@H](Nc2c(-c3cncs3)cnc3[nH]ccc23)C1 [Example 16]", "ATTRIBUTE_MEASURED": "IC50", "REPORTED_MEASUREMENT": "> 1000 nM"}

Here is another molecule to look at.
Prompt line: Given N#CCC(=O)N1CCC[C@@H](Nc2c(-c3nccs3)cnc3[nH]ccc23)C1 [Example 4] , state its recorded IC50.
Response line: ≤ 100 nM

###

# EXPERIMENTAL_SYSTEM: JAK1 (Homo sapiens (Human), UniProt P23458)
# Sequence (P23458 whole entry): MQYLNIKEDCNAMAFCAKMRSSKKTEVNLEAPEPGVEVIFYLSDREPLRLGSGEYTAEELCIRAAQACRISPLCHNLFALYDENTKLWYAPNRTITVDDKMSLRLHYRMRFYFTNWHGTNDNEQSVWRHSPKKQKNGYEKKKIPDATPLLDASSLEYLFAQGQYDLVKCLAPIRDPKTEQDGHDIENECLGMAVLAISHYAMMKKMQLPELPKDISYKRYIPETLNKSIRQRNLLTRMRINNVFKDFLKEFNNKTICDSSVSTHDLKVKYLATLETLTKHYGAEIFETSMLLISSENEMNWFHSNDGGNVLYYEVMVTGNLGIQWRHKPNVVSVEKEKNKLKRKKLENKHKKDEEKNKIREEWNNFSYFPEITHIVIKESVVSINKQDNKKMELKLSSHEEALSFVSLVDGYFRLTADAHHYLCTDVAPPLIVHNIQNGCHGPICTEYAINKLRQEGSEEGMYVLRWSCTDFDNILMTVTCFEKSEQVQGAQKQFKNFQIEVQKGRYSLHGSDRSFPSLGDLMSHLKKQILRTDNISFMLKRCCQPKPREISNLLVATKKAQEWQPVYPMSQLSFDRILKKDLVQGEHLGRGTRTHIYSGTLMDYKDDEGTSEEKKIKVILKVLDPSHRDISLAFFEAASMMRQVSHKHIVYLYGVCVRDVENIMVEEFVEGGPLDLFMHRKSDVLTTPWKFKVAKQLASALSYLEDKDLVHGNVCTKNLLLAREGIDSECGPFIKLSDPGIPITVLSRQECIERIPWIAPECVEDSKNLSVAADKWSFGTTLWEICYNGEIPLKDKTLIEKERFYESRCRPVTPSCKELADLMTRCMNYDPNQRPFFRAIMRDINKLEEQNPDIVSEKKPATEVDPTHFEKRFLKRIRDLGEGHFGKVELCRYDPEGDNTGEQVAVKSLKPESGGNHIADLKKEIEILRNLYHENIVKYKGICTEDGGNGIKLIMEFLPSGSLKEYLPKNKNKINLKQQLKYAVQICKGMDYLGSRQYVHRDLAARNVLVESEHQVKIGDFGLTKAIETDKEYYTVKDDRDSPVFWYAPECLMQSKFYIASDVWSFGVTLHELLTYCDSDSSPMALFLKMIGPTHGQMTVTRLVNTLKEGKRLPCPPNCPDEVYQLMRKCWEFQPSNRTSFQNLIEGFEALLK
ATTRIBUTE_MEASURED: IC50

Consider the worked cases shown below.
{"COMPOUND": "Cc1nc(-c2cnc3[nH]ccc3c2N[C@@H]2CCCN(C(=O)CC#N)C2)no1 [Example 19]", "IC50": "10 to 100 nM"}
{"COMPOUND": "CNC(=O)c1csc(-c2cnc3[nH]ccc3c2N[C@@H]2CCCN(C(=O)CC#N)C2)n1 [Example 35]", "IC50": "≤ 10 nM"}
{"COMPOUND": "Cc1cnc(-c2cnc3[nH]ccc3c2N[C@@H]2CCCN(CCC#N)C2)o1 [Example 37]", "IC50": "≤ 10 nM"}

Here is another compound to look at.
Prompt line: Under JAK1 (Homo sapiens (Human), UniProt P23458): IC50 value of C[C@H]1C[C@@H](Nc2c(-c3ncco3)cnc3[nH]ccc23)CN(C(=O)CC#N)C1 (single isomer, unassigned) [Example 10] ?
Response line: ≤ 10 nM

###

pIC50: −log10 of the molar value.
Measured pIC50 (JAK1 (Homo sapiens (Human)))

Prompt line: Given CNC(=O)c1coc(-c2cnc3[nH]ccc3c2N[C@@H]2C[C@H](C)CN(C(=O)CC#N)C2)n1 , state its recorded pIC50.
Response line: ≥ 8.00

Prompt line: Given N#CCC(=O)N1CCC[C@@H](Nc2c(-c3nccs3)cnc3[nH]ccc23)C1 , state its recorded pIC50.
Response line: ≥ 8.00

Prompt line: Given CCOC(=O)c1cnc(-c2cnc3[nH]ccc3c2N[C@@H]2CCCN(C(=O)CC#N)C2)s1 , state its recorded pIC50.
Response line: ≥ 8.00

Prompt line: Given N#CCC(=O)N1CCC[C@@H](Nc2c(-c3nncs3)cnc3[nH]ccc23)C1 , state its recorded pIC50.
Response line: ≥ 8.00

Prompt line: Given N#CCC(=O)N1CCC[C@@H](Nc2c(-c3ccnc(N)n3)cnc3[nH]ccc23)C1 , state its recorded pIC50.
Response line: ≥ 8.00

###

# EXPERIMENTAL_SYSTEM: UniProtKB P23458
pIC50: −log10 of the molar value. Structures can show the parent of a compound that is named as a salt.
Below, each of the molecules is paired with its reported pIC50 value.

Consider the worked cases shown below.
{"MOLECULE": "C[C@@H]1C[C@H](Nc2c(-c3ncco3)cnc3[nH]ccc23)CN(C(=O)CC#N)C1 (single isomer, unassigned)", "pIC50": "6.00 to 7.00"}
{"MOLECULE": "C[S+]([O-])c1cnc(-c2cnc3[nH]ccc3c2N[C@@H]2CCCN(C(=O)CC#N)C2)s1 (stereo partly shown)", "pIC50": "≥ 8.00"}
{"MOLECULE": "N#CCC(=O)N1CCC[C@@H](Nc2c(-c3cncs3)cnc3[nH]ccc23)C1", "pIC50": "7.00 to 8.00"}
{"MOLECULE": "NC(=O)c1coc(-c2cnc3[nH]ccc3c2N[C@H]2CC[C@@H](O)C2)n1", "pIC50": "7.00 to 8.00"}
{"MOLECULE": "Cc1nccc(-c2cnc3[nH]ccc3c2N[C@@H]2C[C@H](C)CN(C(=O)CC#N)C2)n1", "pIC50": "≥ 8.00"}
{"MOLECULE": "C[C@H]1C[C@@H](Nc2c(-c3cccc(CO)n3)cnc3[nH]ccc23)CN(C(=O)CC#N)C1", "pIC50": "≥ 8.00"}
{"MOLECULE": "O[C@H]1CC[C@@H](Nc2c(-c3ccccn3)cnc3[nH]ccc23)C1", "pIC50": "6.00 to 7.00"}
{"MOLECULE": "CNCCOc1cccc(-c2cnc3[nH]ccc3c2N[C@@H]2CCCN(C(=O)CC#N)C2)n1 [Example 58, hydrochloride]", "pIC50": "≥ 8.00"}
{"MOLECULE": "Cc1ccnc(-c2cnc3[nH]ccc3c2N[C@@H]2CCCN(C(=O)CC#N)C2)c1", "pIC50": "≥ 8.00"}
{"MOLECULE": "Cc1cnc(-c2cnc3[nH]ccc3c2N[C@@H]2CCCN(C(=O)CC#N)C2)o1", "pIC50": "≥ 8.00"}

Prompt line: Given C[C@H]1CC[C@@H](Nc2c(-c3ncco3)cnc3[nH]ccc23)CN1C(=O)CC#N , state its recorded pIC50.
Response line: ≥ 8.00

Prompt line: Given N#CCC(=O)N1CCC[C@@H](Nc2c(-c3ccncn3)cnc3[nH]ccc23)C1 , state its recorded pIC50.
Response line: ≥ 8.00

Prompt line: Given N#CCCN1CCC[C@@H](Nc2c(-c3ncco3)cnc3[nH]ccc23)C1 , state its recorded pIC50.
Response line: 7.00 to 8.00

The values you see were collected from patent US11420966B2.
